- subject_of_test: human S1P4 (Homo sapiens)
- Construct: host or cells: recombinant CHEM cells
- Sequence (O95977 1-384): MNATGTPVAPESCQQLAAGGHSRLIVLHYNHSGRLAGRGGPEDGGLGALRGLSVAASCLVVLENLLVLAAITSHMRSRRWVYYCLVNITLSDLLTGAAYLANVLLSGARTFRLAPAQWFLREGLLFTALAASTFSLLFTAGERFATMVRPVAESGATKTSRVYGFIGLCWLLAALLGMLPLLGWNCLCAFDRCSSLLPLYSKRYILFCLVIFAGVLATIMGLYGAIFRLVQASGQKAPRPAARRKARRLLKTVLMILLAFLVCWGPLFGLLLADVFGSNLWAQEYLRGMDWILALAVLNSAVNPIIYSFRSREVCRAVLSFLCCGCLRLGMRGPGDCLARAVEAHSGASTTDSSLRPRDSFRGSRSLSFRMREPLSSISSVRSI
- procedure_summary: S1P receptor calcium mobilization assay, agonist format
- Assay type: cell-based
- test_conditions: recombinant CHEM cells expressing human S1P4, calcium flux, FLIPR
pIC50: −log10 of the molar value.
readout_type: pIC50

Query :: Value wanted: pIC50 (human S1P4 (Homo sapiens)) of entry CC1(C)CCC(Oc2ccc3cc(CN4CC(C5CCCC(C(=O)O)C5)C4)ccc3c2)CC1 (stereo not shown) [Example 62]
Result :: ≥ 6.30

====

- subject_of_test: human S1P4 (Homo sapiens, UniProt O95977)
- Construct: host or cells: recombinant CHEM cells
- procedure_summary: S1P receptor calcium mobilization assay, antagonist format
- Format: cell-based
- test_conditions: recombinant CHEM cells expressing human S1P4; calcium flux, FLIPR; stimulated with EC80 of reference agonist
- Protocol: Compounds that are not specific for a particular S1P receptor can cause undesirable side effects. Accordingly, compounds are tested to identify those that are specific. […] Assay was read for 180 seconds using the FLIPR^TETRA (This assay run added sample compounds and reference agonist to respective wells). […] Using the EC80 values determined during the agonist assay, stimulated all pre-incubated sample compound and reference antagonist (if applicable) wells with EC80 of reference agonist. […]
readout_type: IC50

Query :: Form field: reported IC50 of CC(C)(C)[C@H]1CC[C@H](Oc2ccc3cc(CN4CCN(c5ncccn5)CC4)ccc3c2)CC1 [Example 44]
Result :: ≤ 500 nM

Query :: Form field: reported IC50 of CC(C)(C)[C@H]1CC[C@H](Oc2ccc3cc(CNC45CCC(C(=O)O)(CC4)C(O)C5)ccc3c2)CC1 (some centres unmarked) [Example 80]
Result :: ≤ 250 nM

Query :: Form field: reported IC50 of CC(C)(C)[C@H]1CC[C@H](Oc2ccc3cc(CN4CC5(COC5)C4)ccc3c2)CC1 [Example 67]
Result :: ≤ 500 nM

Query :: Form field: reported IC50 of CC(C)(C)[C@H]1CC[C@H](Oc2ccc3cc(CN4CCN(c5ccncc5)CC4)ccc3c2)CC1 [Example 46]
Result :: ≤ 500 nM

Query :: Form field: reported IC50 of CC(C)(C)[C@H]1CC[C@H](Oc2ccc3cc(CN4CC(C5CCCC(C(=O)O)C5)C4)ccc3c2)CC1 (some centres unmarked) [Example 58]
Result :: ≤ 100 nM

Query :: Form field: reported IC50 of CC(C)(C)[C@H]1CC[C@H](Oc2ccc3cc(CN4CC5CC(C4)C5C(=O)O)ccc3c2)CC1 (some centres unmarked) [Example 74]
Result :: ≤ 100 nM

Query :: Form field: reported IC50 of O=C(O)C12CCC(NCc3ccc4cc(OC5CCC6(CCCCC6)CC5)ccc4c3)(CC1)CC2 [Example 11]
Result :: ≤ 250 nM

Query :: Form field: reported IC50 of CC(C)[C@H]1CC[C@H](Oc2ccc3cc(CNC45CCC(C(=O)O)(CC4)CC5)ccc3c2)CC1 [Example 4]
Result :: ≤ 250 nM
